- TESTED_ON: T1, D1 domain of human IL-2Rγ extracellular domain expressed with a C-terminal myc-myc-hexahistidine tag (human)
- T1 construct: also called human IL2Rγ domain 1
- T1 chain: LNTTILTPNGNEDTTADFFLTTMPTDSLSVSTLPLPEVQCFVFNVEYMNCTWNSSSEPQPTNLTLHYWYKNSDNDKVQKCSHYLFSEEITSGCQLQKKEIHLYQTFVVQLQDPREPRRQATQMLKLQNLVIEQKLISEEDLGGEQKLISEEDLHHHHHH
- RUN_DESCRIPTION: SPR, mAb captured on anti-hFc, 25 C
Kd values by entry

BINDER	UNIT_ABBREV	Kd
H4H12871P (antibody, human IgG4 S228P, kappa, V domains shown, human IgG4; also called REGN9434) VH: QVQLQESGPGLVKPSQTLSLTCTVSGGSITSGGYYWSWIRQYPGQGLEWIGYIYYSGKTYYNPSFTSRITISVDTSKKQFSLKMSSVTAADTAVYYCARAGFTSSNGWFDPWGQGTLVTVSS VL: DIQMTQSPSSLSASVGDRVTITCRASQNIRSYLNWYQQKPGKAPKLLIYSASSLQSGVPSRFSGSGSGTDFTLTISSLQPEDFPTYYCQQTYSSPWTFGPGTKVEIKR	nM	11.8
H4H12884P (antibody, human IgG4 S228P, kappa, V domains shown, human IgG4) VH: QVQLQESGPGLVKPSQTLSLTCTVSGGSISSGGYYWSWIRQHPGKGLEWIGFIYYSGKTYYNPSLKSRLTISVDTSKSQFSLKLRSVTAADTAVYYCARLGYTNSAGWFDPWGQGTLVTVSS VL: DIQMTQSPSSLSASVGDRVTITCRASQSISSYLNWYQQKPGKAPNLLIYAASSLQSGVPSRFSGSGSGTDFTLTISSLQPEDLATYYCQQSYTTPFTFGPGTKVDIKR	nM	11.8
H4H12889P (antibody, human IgG4 S228P, kappa, V domains shown, human IgG4; also called REGN7257) VH: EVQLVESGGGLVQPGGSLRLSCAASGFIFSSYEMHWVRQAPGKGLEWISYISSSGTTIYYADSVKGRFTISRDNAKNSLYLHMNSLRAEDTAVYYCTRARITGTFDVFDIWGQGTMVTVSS VL: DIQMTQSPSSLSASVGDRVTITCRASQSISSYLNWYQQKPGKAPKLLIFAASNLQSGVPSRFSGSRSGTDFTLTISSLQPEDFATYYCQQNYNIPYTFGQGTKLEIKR	nM	5.34

Where do the numbers come from? From patent US20200247894A1.
